Assay: total protein half-life in vivo (active degradation + dilution); higher = more stable protein
Conditions: wild type E. coli NCM3722; growth: P-lim chemostat; doubling time 12 h
Listing: total protein half-life in vivo of selected sequences
OBSERVATION TYPE: total protein half-life in vivo

INSERT INTO results (item_sequence, result) VALUES
  ('MKKMLLATALALLITGCAQQTFTVQNKQTAVAPKETITHHFFVSGIGQKKTVDAAKICGGAENVVKTETQQTFVNGLLGFITLGIYTPLEARVYCSK', '14.7 h'),
  ('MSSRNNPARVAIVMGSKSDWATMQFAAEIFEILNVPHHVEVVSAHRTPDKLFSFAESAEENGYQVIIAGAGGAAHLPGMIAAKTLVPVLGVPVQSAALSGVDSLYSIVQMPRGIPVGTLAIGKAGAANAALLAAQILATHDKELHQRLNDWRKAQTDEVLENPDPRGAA [P0AG18]', '10.9 h'),
  ('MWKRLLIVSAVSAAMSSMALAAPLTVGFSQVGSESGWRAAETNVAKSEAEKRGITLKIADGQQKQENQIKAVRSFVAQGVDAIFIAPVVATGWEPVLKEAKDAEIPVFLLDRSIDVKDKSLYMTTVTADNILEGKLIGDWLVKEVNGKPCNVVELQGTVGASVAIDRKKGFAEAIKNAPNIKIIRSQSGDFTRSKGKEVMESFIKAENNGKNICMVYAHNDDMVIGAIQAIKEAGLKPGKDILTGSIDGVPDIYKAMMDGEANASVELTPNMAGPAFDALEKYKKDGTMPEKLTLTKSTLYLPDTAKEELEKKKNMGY', '13.4 h'),
  ('MENKYSRLQISIHWLVFLLVIAAYCAMEFRGFFPRSDRPLINMIHVSCGISILVLMVVRLLLRLKYPTPPIIPKPKPMMTGLAHLGHLVIYLLFIALPVIGLVMMYNRGNPWFAFGLTMPYASEANFERVDSLKSWHETLANLGYFVIGLHAAAALAHHYFWKDNTLLRMMPRKRS [P0ABE5]', '11.9 h');

---

Test: total protein half-life in vivo (active degradation + dilution); higher = more stable protein
Settings: wild type E. coli NCM3722; growth: C-lim chemostat; doubling time 3 h
OBSERVATION TYPE: total protein half-life in vivo (h)

INSERT INTO assay_data (item_sequence, observation_type, measured_number) VALUES
  ('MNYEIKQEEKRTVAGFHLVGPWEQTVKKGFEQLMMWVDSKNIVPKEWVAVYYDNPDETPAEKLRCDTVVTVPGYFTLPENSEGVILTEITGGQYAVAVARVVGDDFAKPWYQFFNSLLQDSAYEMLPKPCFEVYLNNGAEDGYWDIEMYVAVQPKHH', 'total protein half-life in vivo', 2.22),
  ('MRTLQGWLLPVFMLPMAVYAQEATVKEVHDAPAVRGSIIANMLQEHDNPFTLYPYDTNYLIYTQTSDLNKEAIASYDWAENARKDEVKFQLSLAFPLWRGILGPNSVLGASYTQKSWWQLSNSEESSPFRETNYEPQLFLGFATDYRFAGWTLRDVEMGYNHDSNGRSDPTSRSWNRLYTRLMAENGNWLVEVKPWYVVGNTDDNPDITKYMGYYQLKIGYHLGDAVLSAKGQYNWNTGYGGAELGLSYPITKHVRLYTQVYSGYGESLIDYNFNQTRVGVGVMLNDLF [P0A921]', 'total protein half-life in vivo', 3.01),
  ('MDMDLNNRLTEDETLEQAYDIFLELAADNLDPADVLLFNLQFEERGGAELFDPAEDWQEHVDFDLNPDFFAEVVIGLADSEDGEINDVFARILLCREKDHKLCHIIWRE [P0A8L7]', 'total protein half-life in vivo', 2.74);
